- tested.system: human MMP-9 (gelatinase B) (Homo sapiens, UniProt P14780)
- Construct: endogenous in cells; host or cells: HT1080 human fibrosarcoma cells (ATCC CCL-121), PMA-stimulated; enzyme purified from the culture supernatant
- Sequence (P14780 107-707 limits assumed): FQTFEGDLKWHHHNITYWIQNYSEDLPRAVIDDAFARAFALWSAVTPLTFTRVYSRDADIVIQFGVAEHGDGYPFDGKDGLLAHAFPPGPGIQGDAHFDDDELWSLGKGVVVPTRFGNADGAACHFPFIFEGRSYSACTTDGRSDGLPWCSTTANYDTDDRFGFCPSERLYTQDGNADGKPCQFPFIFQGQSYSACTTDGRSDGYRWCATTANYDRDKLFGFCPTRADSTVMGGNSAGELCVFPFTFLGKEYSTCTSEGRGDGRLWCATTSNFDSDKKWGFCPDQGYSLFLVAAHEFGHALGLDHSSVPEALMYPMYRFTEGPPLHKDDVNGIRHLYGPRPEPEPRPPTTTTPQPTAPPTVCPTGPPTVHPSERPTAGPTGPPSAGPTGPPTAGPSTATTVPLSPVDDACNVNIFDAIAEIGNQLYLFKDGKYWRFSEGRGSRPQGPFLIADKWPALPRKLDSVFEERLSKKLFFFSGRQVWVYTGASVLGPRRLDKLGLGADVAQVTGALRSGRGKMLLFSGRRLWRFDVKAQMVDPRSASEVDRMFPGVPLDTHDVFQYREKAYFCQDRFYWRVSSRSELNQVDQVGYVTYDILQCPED
- protocol: Inhibition activity against human MMP-9 (gelatinase B), fluorescent peptide substrate
- Type: biochemical
- experimental.parameters: compounds of the formula (I); 2nd measurement; read-out: MMP-9 inhibition activities IC50, 2nd
Labelling field: enter 1.0 if recorded IC50 is less than 20 µM. Enter 0.0 if it equals or exceeds that cut-off.

CNC(=C[N+](=O)[O-])NN=Cc1ccccc1; 0.0
NNC(=C[N+](=O)[O-])NCc1ccccn1; 0.0
CNC(=C[N+](=O)[O-])NNc1cc(C(F)(F)F)cc(SC)n1; 1.0
CNC(=C[N+](=O)[O-])NNc1cccc(Cl)n1; 1.0
CNC(=C[N+](=O)[O-])NNS(C)(=O)=O; 0.0

Then there is this compound:
Q: For this compound, is IC50 lower than 20 µM? "CCOc1ccc(NC(=C[N+](=O)[O-])NN)cc1"
A: 0.0

###

- tested.system: human MMP-9 (gelatinase B) (Homo sapiens, UniProt P14780)
- Construct: endogenous in cells; host or cells: HT1080 human fibrosarcoma cells (ATCC CCL-121), PMA-stimulated; enzyme purified from the culture supernatant
- protocol: Inhibition activity against human MMP-9 (gelatinase B), fluorescent peptide substrate
- Assay type: biochemical
- experimental.parameters: compounds of the formula (I); average of 1st and 2nd (or single measurement); read-out: MMP-9 inhibition activities IC50, Average
endpoint: IC50 (µM)
Lab book: enter the figure in µM, no units written.

Observe how each entry below is paired with its result.
CNC(=C[N+](=O)[O-])NNc1ccc(OC(F)(F)F)cc1 [compound 95]; 26.9
CNC(=C[N+](=O)[O-])NNc1cc(C(F)(F)F)cc(OC)n1 [Compound No. 98]; 8.3
NNC(=C[N+](=O)[O-])Nc1ccc2c(c1)OCO2 [compound 110]; 32.3

Attention now shifts to the item below.
Q: Consider the compound CNC(=C[N+](=O)[O-])NN(C)c1ncc(C(F)(F)F)cc1Cl [Compound No. 35] and give its recorded IC50.
A: 18.4

###

- tested.system: human MMP-9 (gelatinase B) (Homo sapiens, UniProt P14780)
- Construct: endogenous in cells; host or cells: HT1080 human fibrosarcoma cells (ATCC CCL-121), PMA-stimulated; enzyme purified from the culture supernatant
- protocol: Inhibition activity against human MMP-9 (gelatinase B), fluorescent peptide substrate
- Type: biochemical
- experimental.parameters: compounds of the formula (I); 1st measurement; read-out: MMP-9 inhibition activities IC50, 1st
Recorded IC50 for the following compounds
Lab book: enter the figure in µM, no units written.

NNC(=C[N+](=O)[O-])NC1CCCCC1 [compound 86]; 41.8
CNC(=C[N+](=O)[O-])NN=Cc1ccccn1 [Compound No. 29]; 30.8
CNC(=C[N+](=O)[O-])NNc1cc(C(F)(F)F)cc(OCC(F)(F)F)n1 [compound 181]; 11.6

Q: Consider the compound COc1ccc(NC(=C[N+](=O)[O-])NN)cn1 [compound 115] and give its recorded IC50.
A: 31.8

Q: Consider the compound NNC(=C[N+](=O)[O-])Nc1ccc2c(c1)OCO2 [compound 110] and give its recorded IC50.
A: 35.2

###

- tested.system: human MMP-9 (gelatinase B) (Homo sapiens, UniProt P14780)
- Construct: endogenous in cells; host or cells: HT1080 human fibrosarcoma cells (ATCC CCL-121), PMA-stimulated; enzyme purified from the culture supernatant
- protocol: Inhibition activity against human MMP-9 (gelatinase B), fluorescent peptide substrate
- Type: biochemical
- experimental.parameters: compounds of the formula (I); 1st measurement; read-out: MMP-9 inhibition activities IC50, 1st
Labelling field: enter 1 (yes) if recorded IC50 is less than 20 µM. Enter 0 (no) if it equals or exceeds that cut-off.

Example results:
CNC(=C[N+](=O)[O-])NNc1ccc(C(F)(F)F)cc1; 1 (yes)
CS(=O)(=O)NC(=C[N+](=O)[O-])NN1CCOCC1; 1 (yes)
CNC(=C[N+](=O)[O-])NNc1nc(OC)cc(OC)n1; 1 (yes)
COc1ccc(NC(=C[N+](=O)[O-])NN)cc1; 1 (yes)
CNC(=C[N+](=O)[O-])NN=Cc1ccc(C(F)(F)F)cc1; 1 (yes)

Q: For this compound, is IC50 lower than 20 µM? "NNC(=C[N+](=O)[O-])NCc1ccncc1"
A: 0 (no)

Q: For this compound, is IC50 lower than 20 µM? "NNC(=C[N+](=O)[O-])Nc1ccc(Cl)cc1"
A: 0 (no)

Q: For this compound, is IC50 lower than 20 µM? "CNC(=C[N+](=O)[O-])NNc1ccccn1"
A: 1 (yes)

Q: For this compound, is IC50 lower than 20 µM? "CNC(=C[N+](=O)[O-])NNc1cc(C(F)(F)F)cc(OCCN(C)C)n1"
A: 0 (no)

###

Recorded pIC50 for the following compounds
- tested.system: human MMP-9 (gelatinase B) (Homo sapiens, UniProt P14780)
- Construct: endogenous in cells; host or cells: HT1080 human fibrosarcoma cells (ATCC CCL-121), PMA-stimulated; enzyme purified from the culture supernatant
- protocol: Inhibition activity against human MMP-9 (gelatinase B), fluorescent peptide substrate
- Assay type: biochemical
- experimental.parameters: compounds of the formula (I); 1st measurement; read-out: MMP-9 inhibition activities IC50, 1st
Scale explanation: pIC50 corresponds to minus log10 of a concentration expressed in moles per litre.

CNC(=C[N+](=O)[O-])NN=Cc1ccc([N+](=O)[O-])cc1; 4.65
CNC(=C[N+](=O)[O-])NN(C)c1ncc(C(F)(F)F)cc1Cl; 4.84

Q: Consider the compound "CNC(=C[N+](=O)[O-])NNc1ccc(OC(F)(F)F)cc1" and give its recorded pIC50.
A: 4.57

Q: Consider the compound "CNC(=C[N+](=O)[O-])NNc1cccc(C)c1" and give its recorded pIC50.
A: 4.33

Q: Consider the compound "CNC(=C[N+](=O)[O-])NN=C(C)c1cccnc1" and give its recorded pIC50.
A: 4.52

###

- tested.system: human MMP-9 (gelatinase B) (Homo sapiens)
- Construct: endogenous in cells; host or cells: HT1080 human fibrosarcoma cells (ATCC CCL-121), PMA-stimulated; enzyme purified from the culture supernatant
- protocol: Inhibition activity against human MMP-9 (gelatinase B), fluorescent peptide substrate
- Format: biochemical
- experimental.parameters: compounds of the formula (I); 1st measurement; read-out: MMP-9 inhibition activities IC50, 1st
Labelling field: enter MET if recorded IC50 is less than 10 µM. Enter NOT MET if it equals or exceeds that cut-off.

Q: For this compound, is IC50 lower than 10 µM? "NNC(=C[N+](=O)[O-])Nc1cccnc1"
A: NOT MET

Q: For this compound, is IC50 lower than 10 µM? "CNC(=C[N+](=O)[O-])NNS(=O)(=O)c1ccccc1"
A: NOT MET

Q: For this compound, is IC50 lower than 10 µM? CCCCOc1cc(C(F)(F)F)cc(NNC(=C[N+](=O)[O-])NC)n1 [compound 178]
A: NOT MET

Q: For this compound, is IC50 lower than 10 µM? "CCCCOCCOc1cc(C(F)(F)F)cc(NNC(=C[N+](=O)[O-])NC)n1"
A: MET

Q: For this compound, is IC50 lower than 10 µM? "CNC(=C[N+](=O)[O-])NNc1cc(C(F)(F)F)cc(OCCSc2ccccc2)n1"
A: NOT MET

Q: For this compound, is IC50 lower than 10 µM? "O=[N+]([O-])C=C(NCCCCO)NNc1cc(C(F)(F)F)cc(Cl)n1"
A: MET

Q: For this compound, is IC50 lower than 10 µM? "CCCCCCCCNC(=C[N+](=O)[O-])NN"
A: NOT MET

Q: For this compound, is IC50 lower than 10 µM? "CNC(=C[N+](=O)[O-])NN=C(C)OC"
A: NOT MET

Q: For this compound, is IC50 lower than 10 µM? "NNC(=C[N+](=O)[O-])NCc1ccccc1"
A: NOT MET

Q: For this compound, is IC50 lower than 10 µM? "CNC(=C[N+](=O)[O-])NNc1cc(C(F)(F)F)cc(OCCOCCOC)n1"
A: MET

Q: For this compound, is IC50 lower than 10 µM? "CCNC(=C[N+](=O)[O-])NNc1cc(C(F)(F)F)cc(Cl)n1"
A: NOT MET

Q: For this compound, is IC50 lower than 10 µM? "CNC(=C[N+](=O)[O-])NNc1cccc(C(=O)O)c1"
A: NOT MET

###

Recorded melting point for the following compounds

NNC(=C[N+](=O)[O-])Nc1ccc(OC(F)(F)F)cc1; 161 °C (dec.)
CCCCOc1cc(C(F)(F)F)cc(NNC(=C[N+](=O)[O-])NC)n1 [compound 178]; 161 °C (dec.)
NNC(=C[N+](=O)[O-])Nc1ccc(O)cc1; 190 °C (dec.)
CNC(=C[N+](=O)[O-])NNc1ccc(C(F)(F)F)cn1; 207 °C (dec.)
CNC(=C[N+](=O)[O-])NN=C(C)c1ccncc1; 199 °C (dec.)

Q: Consider the compound "CNC(=C[N+](=O)[O-])NNc1ncnc2c(C)csc12" and give its recorded melting point.
A: 216 °C (dec.)

Q: Consider the compound CCCCOc1cc(C(F)(F)F)cc(NNC(=C[N+](=O)[O-])NC)n1 [compound 177] and give its recorded melting point.
A: 169 °C (dec.)

Q: Consider the compound "CNC(=C[N+](=O)[O-])NNc1cc(C(F)(F)F)cc(SC)n1" and give its recorded melting point.
A: 192 °C (dec.)

Q: Consider the compound "CNC(=C[N+](=O)[O-])NNc1cc(OC)nc(OC)n1" and give its recorded melting point.
A: 160 to 162 °C (dec.)

Q: Consider the compound "CNC(=C[N+](=O)[O-])NN=Cc1ccc2c(c1)OCCO2" and give its recorded melting point.
A: 179 °C (dec.)

Q: Consider the compound "CNC(=C[N+](=O)[O-])NNc1ccc([N+](=O)[O-])cc1" and give its recorded melting point.
A: 186 °C (dec.)

Q: Consider the compound "CCNC(=C[N+](=O)[O-])NN" and give its recorded melting point.
A: 93.5 to 98.5 °C

Q: Consider the compound CSC(=C[N+](=O)[O-])Nc1ccc([N+](=O)[O-])cc1 [Intermediate 11] and give its recorded melting point.
A: 180 °C

Q: Consider the compound "NNC(=C[N+](=O)[O-])NS(=O)(=O)c1ccccc1" and give its recorded melting point.
A: 210 °C (dec.)

Q: Consider the compound "CNC(=C[N+](=O)[O-])NNc1nc(OC)cc(OC)n1" and give its recorded melting point.
A: 166 to 167 °C (dec.)

Q: Consider the compound CSC(=C[N+](=O)[O-])NS(=O)(=O)c1ccc(-c2ccccc2)cc1 [Intermediate 62] and give its recorded melting point.
A: 75 to 77 °C

Q: Consider the compound CSC(=C[N+](=O)[O-])Nc1ccc2c(c1)C(=O)CO2 [Intermediate 52] and give its recorded melting point.
A: 221 to 222 °C (dec.)

Q: Consider the compound "COc1ccc(NC(=C[N+](=O)[O-])NN)cn1" and give its recorded melting point.
A: 162 to 165 °C

Q: Consider the compound "C=CCOc1cc(C(F)(F)F)cc(NNC(=C[N+](=O)[O-])NC)n1" and give its recorded melting point.
A: 175 °C (dec.)
